System: Leishmania major
Experiment: Antileishmanial activity against Leishmania major promastigotes after 72 hrs by Neubauer counting chamber based microscopy
Assay type: functional, organism-based
MEASURED_QUANTITY: IC50

- RECORD_SMILES: "COc1cccc(Nc2ncnc3ccc([N+](=O)[O-])cc23)c1"
  IC50: "Not Active"
- RECORD_SMILES: "O=[N+]([O-])c1ccc2ncnc(Nc3cccc(O)c3)c2c1"
  IC50: "Not Active"
- RECORD_SMILES: "O=[N+]([O-])c1ccc2ncnc(Nc3cc(Cl)ccc3Cl)c2c1"
  IC50: "Not Active"
- RECORD_SMILES: "O=[N+]([O-])c1ccc2ncnc(Nc3ccc(Cl)cc3Cl)c2c1"
  IC50: "Not Active"
- RECORD_SMILES: "O=[N+]([O-])c1ccc2ncnc(Nc3ccccc3)c2c1"
  IC50: "Not Active"
- RECORD_SMILES: "O=[N+]([O-])c1ccc2ncnc(Nc3ccc(Cl)c(Cl)c3)c2c1"
  IC50: "Not Active"
- RECORD_SMILES: "COc1ccc(Nc2ncnc3ccc([N+](=O)[O-])cc23)cc1"
  IC50: "Not Active"
- RECORD_SMILES: "COc1cc(OC)c(Nc2ncnc3ccc([N+](=O)[O-])cc23)cc1Cl"
  IC50: "Not Active"

Please go through the list and note IC50 for each compound.
1. Cc1ccc(C)c(Nc2ncnc3ccc([N+](=O)[O-])cc23)c1
2. O=[N+]([O-])c1ccc2ncnc(Nc3ccc(F)cc3)c2c1
3. O=[N+]([O-])c1ccc2ncnc(Nc3ccc(I)cc3)c2c1
4. O=[N+]([O-])c1ccc2ncnc(Nc3cccc(Cl)c3)c2c1
5. O=[N+]([O-])c1ccc2ncnc(Nc3ccc(Cl)cc3)c2c1

Response:
["Not Active", "Not Active", "Not Active", "Not Active", "Not Active"]
